test: biodistribution in mice bearing human glioma cells; type: in vivo; conditions: Balb/C, mouse, tumor, iv, i.v. 10 mg/kg DOX, read-out: accumulation of DOX in tumor
Counter-ions that a name gives are not always drawn.
Metric: tissue uptake at 4 h (%ID/g)
Reply numerically in %ID/g, unit not repeated.

Report measured tissue uptake at 4 h; entry is COc1cccc2c1C(=O)c1c(O)c3c(c(O)c1C2=O)C[C@@](O)(C(=O)CO)C[C@@H]3O[C@H]1C[C@H](N)[C@H](O)[C@H](C)O1 [DOX.HCl, doxorubicin hydrochloride] 0.82

Hey, just so you know, these numbers are from patent US10072122B2.
